# ASSAY METHOD TEXT: yeast display, Sf9 membrane polyspecificity reagent, FACS + sequencing; frameworks hold sequencing errors
MEASUREMENT NAME: polyreactivity (PSR sort gate)

QVQLVESGGGLVQAGGSLRLSCAASGSTFRIYAMGWYRQAPGKERELVATITSGSSTYADSVKGRFTISRDNAKNTVYLQMNSLKPEDTAVYYCAARRKGGHISYGYDYWGQGTQVTVSS : high polyreactivity
QVQHVESGGGLLQAGGSLRLSSAATGSTNAMGWYRQAHGKERELVAAISRRGGSTYYADSVKGRFTISRDNAKKTVYLQMFSLKPEDTAVYYCAAPYSTFSYVYWGQGTQLTVSS : high polyreactivity

// provenance: the nanobody polyreactivity screen of Harvey et al. (2022)
